tested on: OVCAR-3 ovarian; test: NCI-60 one-dose screen, 48 h; conditions: 10 µM unless noted
Compounds without any hit were thinned out: in the full panel of roughly 83,000, 20% have a hit. Calls of active or inactive are those of the source. Rule for the calls: active = growth percent below 10; inactive = the rest.
Respond with a class label; see Y = active, N = inactive

Example entries begin here.
compound | assay system | qualitative label
O=C(Nc1ccc(Cl)cc1)c1cc2cc(F)ccc2cc1O | OVCAR-3 ovarian | N
COc1cc(/C=C/c2cc(/C=C/c3ccc(O)c(OC)c3)n(-c3c(C)cccc3C)c(=O)n2)ccc1O | OVCAR-3 ovarian | Y
Oc1ccc(N=Cc2ccccc2O)cc1 | OVCAR-3 ovarian | N
O=C(COc1cccc(/C=C2\CSc3ccccc3C2=O)c1)Nc1nccs1 | OVCAR-3 ovarian | N
Cc1cc(C)nc(SC2=C(Nc3cccc(Cl)c3)C(=O)N(Cc3ccccc3)C2=O)n1 | OVCAR-3 ovarian | N
O=C(O)c1c(=O)cccc2ssc12 | OVCAR-3 ovarian | Y
C=C1C(=O)O[C@H]2[C@H]1CC/C(COC(=O)c1cc3cc(OC)ccc3[nH]1)=C\CC[C@@]1(C)O[C@@H]21 | OVCAR-3 ovarian | Y
O=C(COc1cccc(/C=C2\COc3ccccc3C2=O)c1)Nc1nccs1 | OVCAR-3 ovarian | N
CC(=O)c1nc2ccccc2n1CC(=O)c1cccc(Cl)c1 | OVCAR-3 ovarian | Y
CC(O)CN(CC(C)O)c1ccc2c(c1)Cc1cc([N+](=O)[O-])ccc1-2 (centres undefined) | OVCAR-3 ovarian | N

State the result this test recorded for Cc1cc(Nc2ccc(C)c(Cl)c2)n2nc(C(F)(F)F)nc2n1 .
N

State the result this test recorded for CC[C@@H](C(=O)[C@@H](C)[C@@H](O)[C@H](C)[C@@H]1O[C@@H]([C@@H](CC)C(=O)O)CC[C@@H]1C)[C@H]1OC2(C=C[C@@H](O)[C@]3(CC[C@@](C)([C@H]4CC[C@](O)(CC)[C@H](C)O4)O3)O2)[C@H](C)C[C@@H]1C (some centres undefined) .
N

State the result this test recorded for COc1cc(C)c(C2C(C#N)=C(N)Oc3n[nH]c(-c4cccs4)c32)cc1C(C)C (centres undefined) .
N

---

tested on: LOX IMVI melanoma; assay: NCI-60 one-dose screen, 48 h; settings: 10 µM unless noted
About 83,000 compounds went through this panel and 20% of them were active in at least one assay; those are over-represented in the sample as a whole. Activity calls are given as the source filed them. How the source made its calls: active means growth percent below 10; inactive means the rest.
Respond with a class label; see active, inactive

Example entries begin here.
molecule | qualitative label
O=C(/C=C/c1cc(CN2CCOCC2)c(O)c2ncccc12)c1cc(CN2CCOCC2)c(O)c2ncccc12 | inactive
Clc1ccc2c(NCCNc3nc(N4CCCCC4)nc4ccccc34)ccnc2c1 | active
C=CC(=O)Nc1cccc(-c2nc(SC)nc(NCc3ccccc3)c2C#N)c1 | inactive
CC(=O)c1cc2c(N)c(C(=O)Nc3cccc(F)c3C)sc2nc1C | inactive
O=C1C=C(O)C(=O)C(CC2=C(O)C(=O)C=C(O)C2=O)=C1O | inactive

Attention now turns to another entry.
State the result this test recorded for O=C(O)COc1ccc(Cl)cc1C1CCCCC1 .
inactive

---

system: OVCAR-4 ovarian; test: NCI-60 one-dose screen, 48 h; conditions: 10 µM unless noted
The panel holds about 83,000 compounds, 20% with a hit somewhere; the sample as a whole holds those more often. Calls of active or inactive are those of the source. How the source made its calls: active means growth percent below 10; inactive means the rest.
Respond with a class label; see class 1 = active, class 0 = inactive

State the result this test recorded for O=C(CCN1C(=O)/C(=C/c2ccc(Cl)cc2)SC1=S)NCCCN1CCOCC1 .
class 0

State the result this test recorded for CN(C)S(=O)(=O)c1cccc(-c2nc3sc4c(c3c(=O)[nH]2)CCCC4)c1 .
class 1

State the result this test recorded for NC(=NCCCOc1ccc(Cl)cc1)Nc1ccc(Cl)cc1 .
class 0

State the result this test recorded for FC(F)(F)Oc1ccc2nc3nc4ccc[nH]c4cc3c2c1 .
class 0

State the result this test recorded for Cn1c(=O)[nH]c(=O)c2nc(CCC(=O)NCCC(=O)O)c(=O)[nH]c21 .
class 0

State the result this test recorded for COc1cc2c(cc1-c1c(C)noc1C)ncc1nc(C3CCCCC3)n([C@H](C)COC(F)F)c12 .
class 0

State the result this test recorded for CCOC(=O)c1c(C(=O)OCC)c2cc(-c3ccn4c(C(=O)c5ccccc5)c(C(=O)OCC)c(C(=O)OCC)c4c3)ccn2c1C(=O)c1ccccc1 .
class 0

State the result this test recorded for CN(C)c1ccc(N=Nc2ccccn2)c(O)c1 .
class 0

State the result this test recorded for O=C(CCl)Oc1ccc(-c2ccccc2)c(Br)c1 .
class 0

State the result this test recorded for O=C(N=Nc1c(O)[nH]c2ccccc12)c1cc(-c2ccccc2)on1 .
class 0

State the result this test recorded for COc1ccc2c(c1)C(=O)/C(=C/c1cccnc1)CC2 .
class 0

State the result this test recorded for COc1cc(-c2nc(C(=O)NCC(=O)NO)nn2-c2ccc(Cl)cc2)cc(OC)c1OC .
class 0

State the result this test recorded for Cc1cc(N2CCCC2)nc(NC2CCCC(Nc3ccnc4cc(Cl)ccc34)C2)n1 (stereo unspecified) .
class 0

State the result this test recorded for COc1ccc(C(=O)c2sc3nc(C)cc(C)c3c2N)cc1OC .
class 0

State the result this test recorded for Cc1ccc(C2=NN3C(C2)c2cc(Br)ccc2OC32CCN(Cc3ccccc3)CC2)o1 (stereo unspecified) .
class 0

State the result this test recorded for OC(COc1cccc2ccccc12)CN1CCN(c2ccccc2Cl)CC1 (stereo unspecified) .
class 0

State the result this test recorded for COc1ccc(C(=S)N2CCN(c3cccc(Cl)c3)CC2)cc1 .
class 0

---

system: OVCAR-5 ovarian; test: NCI-60 one-dose screen, 48 h; details: 10 µM unless noted
This is part of a sample that, as a whole, favours compounds with a hit. Of some 83,000 tested, about 20% had one in any assay. Calls of active or inactive are those of the source. Rule for the calls: active = growth percent below 10; inactive = the rest.
Respond with a class label; see y (active), n (inactive)

Example entries begin here.
molecule | qualitative label
CC1=C[C@H]2c3c(c(O)c(O)c4oc5cc(O)ccc5c(=O)c34)[C@H](c3cc(O)c(O)c4oc5cc(O)ccc5c(=O)c34)[C@H]2C(C)(C)C1 | n
O=C1c2ccccc2OC=C(c2ccccc2)N1CCCCNc1ccc(S(=O)(=O)Nc2ncccn2)cc1 | n
Nc1n[nH]c2cc(F)c([C@@H]3Nc4ccc5[nH]ncc5c4[C@H]4C5CCC(C5)[C@@H]34)cc12 (stereo not given in full) | n
O=C(/C=C/c1cc(CN2CCOCC2)c(O)c2ncccc12)c1cc(CN2CCOCC2)c(O)c2ncccc12 | n
CN(C)c1ccc(N=Nc2ccccn2)c(O)c1 | n
CCOC(=O)c1csc(NC(=O)COc2cccc(/C=C3\CSc4ccccc4C3=O)c2)n1 | n
C=C1c2nc3ccccc3n2C=C(c2ccc(Cl)cc2)N1Cc1ccc(OC)cc1 | n
Cc1ccc(C(SCC(N)C(=O)O)(c2ccccc2)c2ccc(C)cc2)cc1 (stereo not given) | y

State the result this test recorded for CCCc1cc(=O)n2c(C(=O)Nc3cccc(C(=O)OCC)c3)c(C(=O)Nc3ccc(F)cc3)sc2n1 .
n

State the result this test recorded for COc1cc(C)c(C2C(C#N)=C(N)Oc3n[nH]c(-c4cccs4)c32)cc1C(C)C (stereo not given) .
n

State the result this test recorded for Cn1cc(C(=O)c2nc(-c3c[nH]c4ccc(Br)cc34)no2)c2cc(F)ccc21 .
n

State the result this test recorded for CCCOc1cc2ccccc2cc1C(=O)Nc1nc(NC)c2c(ccc3nccc32)[nH]1 .
y

State the result this test recorded for Cn1cc(-c2nonc2-c2cn(C)c3ccc(F)cc23)c2ccccc21 .
n

State the result this test recorded for Nc1n[nH]c2ccc([C@@H]3Nc4cc5c(cc4[C@H]4C6CCC(C6)[C@@H]34)C(=O)NC5)cc12 (stereo not given in full) .
n

---

test system: BT-549 breast; test: NCI-60 one-dose screen, 48 h (100 = growth as untreated, 0 = no growth, -100 = all killed); settings: 10 µM unless noted
This is part of a sample that, as a whole, favours compounds with a hit. Of some 83,000 tested, about 20% had one in any assay. The source made the active and inactive calls. The calls were made as follows: active = growth percent below 10; inactive = the rest.
Listed below: growth values for each entry.

molecule | assay system | reading
C#CCOc1ccc2ncnc(N3CCN(C(=O)CCl)CC3)c2c1 | BT-549 breast | 56.8% [8.25 µM] (inactive)

Answer with the recorded growth of CC1C(/C=N/Nc2ccccc2)C(C#N)(C#N)C1(C#N)C#N (stereo unspecified) only.
77.4% (inactive)

Answer with the recorded growth of COc1cc2c(cc1-c1c(C)noc1C)ncc1nc(-c3ccccn3)n([C@H](C)COC(F)F)c12 only.
57.7% (inactive)

---

test system: SR leukemia; assay: NCI-60 one-dose screen, 48 h; settings: 10 µM unless noted
The panel holds about 83,000 compounds, 20% with a hit somewhere; the sample as a whole holds those more often. Activity calls are given as the source filed them. The calls were made as follows: active = growth percent below 10; inactive = the rest.
Respond with a class label; see class 1 (active), class 0 (inactive)

Example entries begin here.
compound | qualitative label
COc1cc(-c2nn(-c3ccc(C(=O)O)cc3)cc2C(=O)O)ccc1O | class 0
CC(=O)Oc1ccc(Cl)cc1CN(C(C)=O)C1CCCCC1 | class 0
C=C1C(=O)O[C@H]2[C@H]1CC/C(COC(=O)c1cc3cc(OC)ccc3[nH]1)=C\CC[C@@]1(C)O[C@@H]21 | class 1
COc1cc2c(cc1OC)C(Sc1ccc(SC)cc1)c1c(nc(N)c(C#N)c1N)O2 (stereo unspecified) | class 1

State the result this test recorded for CCNC(=O)Oc1ccc(/C(=C(\C)c2ccc(Cl)cc2)c2ccc(OCCN3CCCCC3)cc2)cc1 .
class 1

State the result this test recorded for COc1cccc(/C=C2\Oc3cc(OCCN4CCCC4)ccc3C2=O)c1 .
class 0
